- tgt: Gal-3 R186S (Homo sapiens, UniProt P17931, R186S)
- Sequence (P17931 whole entry R186S): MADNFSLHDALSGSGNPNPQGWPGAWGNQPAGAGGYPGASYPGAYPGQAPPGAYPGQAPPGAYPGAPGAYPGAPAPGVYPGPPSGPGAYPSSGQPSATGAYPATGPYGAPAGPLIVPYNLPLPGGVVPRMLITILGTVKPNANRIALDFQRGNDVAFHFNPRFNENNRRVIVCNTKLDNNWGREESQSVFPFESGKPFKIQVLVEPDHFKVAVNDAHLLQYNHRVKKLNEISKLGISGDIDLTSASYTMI
- test: Fluorescence anisotropy assay, galectin-3 R186S mutant
- Type: binding
- test.settings: about 1 μM galectin, 0.1 or 0.02 μM probe; read-out: Calculated Kd, Gal-3 R186S
pKd: −log10 of the molar value.
pKd: recorded values

compound	pKd
CO[C@@H]1O[C@H](CO)[C@@H](O[C@@H]2O[C@H](CO)[C@H](O)[C@H](O)[C@H]2O)[C@H](O)[C@H]1NC(C)=O [Methyl β-LacNAc, reference compound]	2.92
CO[C@@H]1O[C@H](CO)[C@@H](O[C@@H]2O[C@H](CO)[C@H](O)[C@H](O)[C@H]2O)[C@H](O)[C@H]1O [Methyl β-Lac, reference compound]	3.54
